tested on: A549/ATCC NSCLC; test: NCI-60 one-dose screen, 48 h; conditions: 10 µM unless noted
About 83,000 compounds went through this panel and 20% of them were active in at least one assay; those are over-represented in the sample as a whole. The source made the active and inactive calls. How the source made its calls: active means growth percent below 10; inactive means the rest.
Write down the outcome that applies. Available outcomes: 1 = active, -1 = inactive

[Q] Name the outcome recorded for Brc1ccc(-c2cnc3nonc3n2)cc1 in the assay.
[A] -1

[Q] And then Nc1nc(C(=O)N/N=C/c2ccc(N3CCOCC3)cc2)nn1-c1ccc(S(N)(=O)=O)cc1 , what is it?
[A] -1

[Q] Ok, now CCCCCCOC(=O)CC1=C(C)/C(=C/c2[nH]c(-c3ccc[nH]3)cc2OC)N=C1C
[A] 1

[Q] Repeat with CNCc1cccc2c1OCCOCCN(C)C(=O)CN(C)S(=O)(=O)c1ccc(cc1)-c1cnc(N)c(n1)C(=O)N2
[A] -1

[Q] Repeat for the following compound: CCOC(=O)C1=C(C)N=C2SC=C(c3ccccc3)N2[C@H]1c1cn[nH]c1-c1ccc(Cl)cc1
[A] -1

[Q] Also COc1cc2cc(Oc3ccc(NC(=O)Nc4ccccc4)cc3)c(C)nc2cc1OCCN1CCCCC1 , if possible.
[A] -1

[Q] And then c1ccc(CCc2ccccc2-c2cc(-c3ccccc3)on2)cc1 , what is it?
[A] -1

[Q] Would you kindly repeat that for CN1CCCc2cc(/C=C3/SC(=S)N(CCc4ccc(O)cc4)C3=O)ccc21 ?
[A] -1

[Q] Repeat with CCCCCCCC/C=C\CCCCCCCCOc1ccccc1CC(=O)NCC[N+]1(C)CCCCC1
[A] -1

[Q] Repeat with COc1cc(/C=N/Nc2ccccc2F)cc(OC)c1OC
[A] -1

[Q] Likewise for O=C(Cn1cc(CN2C(=O)c3ccccc3S2(=O)=O)nn1)Nc1cccc(Cl)c1 ?
[A] -1

[Q] What do you have for CCCCCCCCCCCCCCCCCCOc1ccccc1CC(=O)OCC[N+]1(C)CCOCC1 ?
[A] -1

[Q] Now consider CC(C)(C)C(=O)/C=C/c1ccc([N+](=O)[O-])cc1 and answer again.
[A] -1

[Q] And O=C(Cn1nnc2ccccc21)N/N=C/c1ccccc1F ?
[A] -1

[Q] Let us now turn to COc1ccc(-c2cn(-c3ccc(Cl)cc3)c(SCC(=O)c3ccc([N+](=O)[O-])cc3)n2)cc1
[A] -1

[Q] Now consider CCN(CC)CCOc1nc2c3ccc(Cl)cc3nn2c2ccccc12 .
[A] -1

[Q] Consider next the compound c1ccc2cc(Cn3c[n+](Cc4ccc5ccccc5c4)c4ccccc43)ccc2c1 in the same way.
[A] -1

[Q] What do you get for CCCC(O)Cn1ncc(C(=O)OCC)c1NC(=O)NCc1cccc(F)c1 (stereo unspecified) ?
[A] -1

[Q] How about this compound: C=CC(=O)NCCOc1cccc(Nc2cc(NCCCNC(=O)C3CCC3)c(Br)cn2)c1
[A] 1

[Q] For C#CCn1cnc2c(Nc3cccc(NC(=O)CCl)c3)ncnc21 then?
[A] -1

[Q] Same for COc1cc(-c2nc(SCCC(C)C)nc(N3CCOCC3)c2C#N)cc(OC)c1OC
[A] -1

[Q] Now give it for CC(=O)c1c(Nc2ccc(F)c(F)c2F)[nH]c2c(F)cc(F)cc2c1=O too.
[A] 1

[Q] Now the compound O=C1NC(=C(Cl)Cl)/C(=N/S(=O)(=O)N2CCCCC2)N1
[A] -1

[Q] Queued: O=C(CN1CCN(c2cc3c(cc2F)c(=O)c(C(=O)O)cn3C2CC2)CC1)N/N=C/c1ccncc1
[A] -1

[Q] Then Cc1ccc(O)c(NC(=O)c2ccc(CNc3ccnc(C(F)(F)F)c3)cc2)c1 ?
[A] -1

[Q] Next: O=C(Cn1nnc([N+](=O)[O-])n1)c1ccccc1
[A] -1

[Q] Another: CC(C)=CC(=O)N[C@@H]1CC2CCC3C(CC[C@@]4(C)C3CC[C@@H]4C(C)N(C)C)[C@@]2(C)C[C@@H]1O (stereo partly specified)
[A] -1

[Q] Would you mind doing COc1ccc2c(c1)c(-c1nc(-c3cn(C)c4ncccc34)cs1)cn2CCO as well?
[A] -1

[Q] Let us now turn to COc1cc(C(=O)/C=C/c2ccc(N3CCN(C)CC3)cc2)cc(OC)c1OC
[A] -1

[Q] What do we get for COc1ccc(C2=Nc3c(N)ncnc3NC(c3cccc(Nc4ccnc5cc(C(F)(F)F)ccc45)c3)C2)cc1 (stereo unspecified) ?
[A] -1

[Q] Entry COc1ccc(C/C(C)=C(/c2ccc(OCCN3CCCCCC3)cc2)c2ccc(OC(=O)NCc3ccccc3)cc2)cc1 please
[A] -1
